# ASSAYED TARGET: Voltage-gated inwardly rectifying potassium channel KCNH2 (Homo sapiens, UniProt Q12809)
# Sequence (Q12809 whole entry): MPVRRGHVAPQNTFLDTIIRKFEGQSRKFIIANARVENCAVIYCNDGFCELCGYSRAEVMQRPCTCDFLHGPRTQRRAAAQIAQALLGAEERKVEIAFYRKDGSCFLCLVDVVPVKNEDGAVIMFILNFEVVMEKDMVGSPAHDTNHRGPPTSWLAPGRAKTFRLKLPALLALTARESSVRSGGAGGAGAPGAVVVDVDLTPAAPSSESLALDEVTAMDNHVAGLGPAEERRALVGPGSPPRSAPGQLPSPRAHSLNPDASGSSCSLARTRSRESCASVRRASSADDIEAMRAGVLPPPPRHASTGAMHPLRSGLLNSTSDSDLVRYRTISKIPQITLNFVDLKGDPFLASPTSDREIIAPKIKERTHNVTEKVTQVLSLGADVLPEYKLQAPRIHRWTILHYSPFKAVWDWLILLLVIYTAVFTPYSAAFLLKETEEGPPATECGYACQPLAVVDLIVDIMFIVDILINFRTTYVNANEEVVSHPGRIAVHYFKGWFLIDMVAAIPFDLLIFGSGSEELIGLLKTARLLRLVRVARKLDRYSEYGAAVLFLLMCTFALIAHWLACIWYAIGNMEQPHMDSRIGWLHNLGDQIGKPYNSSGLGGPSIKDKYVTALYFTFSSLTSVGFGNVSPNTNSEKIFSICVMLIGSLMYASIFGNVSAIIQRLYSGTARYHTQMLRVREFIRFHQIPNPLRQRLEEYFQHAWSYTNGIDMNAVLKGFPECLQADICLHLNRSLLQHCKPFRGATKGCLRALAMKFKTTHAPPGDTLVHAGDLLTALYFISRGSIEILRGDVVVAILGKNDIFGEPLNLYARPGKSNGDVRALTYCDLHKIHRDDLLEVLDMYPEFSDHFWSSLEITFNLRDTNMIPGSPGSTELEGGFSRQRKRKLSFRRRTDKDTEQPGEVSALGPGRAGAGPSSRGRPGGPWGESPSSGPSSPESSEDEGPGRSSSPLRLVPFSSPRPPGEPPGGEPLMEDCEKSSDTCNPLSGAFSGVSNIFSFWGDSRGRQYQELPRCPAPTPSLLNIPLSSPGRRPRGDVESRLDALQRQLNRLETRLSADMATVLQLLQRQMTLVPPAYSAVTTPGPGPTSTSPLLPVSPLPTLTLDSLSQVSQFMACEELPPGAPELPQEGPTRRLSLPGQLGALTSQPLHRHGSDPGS
# TEST DETAILS: Inhibition of radioligand binding to human ERG expressed in HEK293 cell membranes by scintillation counting method
pIC50: −log10 of the molar value.

{"SMI": "CCCC[C@@H](CCO)Nc1nc(N)nc2cccc(F)c12", "pIC50": "< 5.00"}
{"SMI": "CCC[C@@H](CCO)Nc1nc(N)nc2cc(OC)ccc12", "pIC50": "< 5.00"}
{"SMI": "CCC[C@@H](CCO)Nc1nc(N)nc2c(F)cccc12", "pIC50": "< 5.00"}
